Values compiled from patent US20250277030A1.

Target: T1, NaPi2b expressed on IGROV-1 cells (Homo sapiens, UniProt O95436)
T1 construct: IGROV-1 cells express endogenous NaPi2b at a high level; endogenous in cells; host or cells: IGROV-1
T1 sequence (O95436 1-690): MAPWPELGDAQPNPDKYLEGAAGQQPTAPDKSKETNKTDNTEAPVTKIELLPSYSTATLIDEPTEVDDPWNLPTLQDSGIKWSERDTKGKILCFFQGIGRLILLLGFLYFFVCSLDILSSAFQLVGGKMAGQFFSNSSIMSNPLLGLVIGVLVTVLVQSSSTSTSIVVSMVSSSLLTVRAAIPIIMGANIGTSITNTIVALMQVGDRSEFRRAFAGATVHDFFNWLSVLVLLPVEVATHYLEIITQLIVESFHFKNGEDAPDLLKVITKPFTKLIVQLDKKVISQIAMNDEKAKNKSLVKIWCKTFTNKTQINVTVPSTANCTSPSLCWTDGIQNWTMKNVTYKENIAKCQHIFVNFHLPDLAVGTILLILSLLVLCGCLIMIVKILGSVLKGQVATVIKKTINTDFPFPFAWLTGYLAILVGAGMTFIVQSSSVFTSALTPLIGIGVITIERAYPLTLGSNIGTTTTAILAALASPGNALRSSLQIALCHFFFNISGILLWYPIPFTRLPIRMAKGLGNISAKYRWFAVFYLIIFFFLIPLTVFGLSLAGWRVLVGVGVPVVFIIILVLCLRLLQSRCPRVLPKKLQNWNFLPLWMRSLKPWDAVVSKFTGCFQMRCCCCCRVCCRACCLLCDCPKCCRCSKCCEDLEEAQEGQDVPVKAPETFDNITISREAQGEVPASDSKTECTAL
Assay: Cellular binding of bivalent antibodies to IGROV-1 cells by flow cytometry (Example 13)
Conditions: IGROV-1, 24 hours at 4° C.; NB = no cellular binding
The molecules listed here are annotated with their Curve Hill Slope (h).
Number only, no unit.

molecule="v29454: humanized anti-NaPi2b IgG1/kappa antibody H3L2; VH SEQ ID NO:26, VL SEQ ID NO:29 (antibody, V domains shown, v29450, v29454, v29458 VH (H3); v29453, v29454, v29455, v29456 VL (L2)) VH: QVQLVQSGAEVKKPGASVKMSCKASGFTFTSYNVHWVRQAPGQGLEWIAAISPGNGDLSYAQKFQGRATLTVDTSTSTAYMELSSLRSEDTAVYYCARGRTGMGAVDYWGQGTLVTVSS VL: DVQMTQSPSSLSASVGDRVTITCRASQDVYSYLNWYQQKPGKAVKLLIYYTSRLQSGVPSRFSGSGSGTDYTLTISSLQPEDFATYYCQQYNIFPWTFGQGTKLEIK" experimental_result=1.0

Query: Need Curve Hill Slope (h) of v29449: humanized anti-NaPi2b IgG1/kappa antibody H4L3; VH SEQ ID NO:27, VL SEQ ID NO:30 (antibody, V domains shown, v29449, v29453, v29457 VH (H4); v29449, v29450, v29451, v29452 VL (L3)) VH: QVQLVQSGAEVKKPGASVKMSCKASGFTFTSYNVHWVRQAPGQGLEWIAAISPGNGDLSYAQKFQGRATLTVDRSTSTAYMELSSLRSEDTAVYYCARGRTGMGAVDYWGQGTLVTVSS VL: DVQMTQSPSSLSASVGDRVTITCRASQDVYSYLNWYQQKPGKAVKLLIYYTSRLQSGVPSRFSGSGSGTDYTLTISSLQPEDIATYYCQQYNIFPWTFGQGTKLEIK , thanks.
Response: 1.3
